- target-under-test: T1, Sla1-2, P32790
- T1 sequence (P32790 60-140, looked up): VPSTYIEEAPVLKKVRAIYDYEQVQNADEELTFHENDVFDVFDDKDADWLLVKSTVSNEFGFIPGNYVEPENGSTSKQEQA
- assay-remarks: SPOT array
- experimental-context: median of control spots 712
quantity-name: SPOT intensity

Some binders with known SPOT intensity results, for comparison:
RPVPRRPSQPLNTLS | 0
PELAPKREAPKPPAN | 0

[a] FFRRSELYLPNSSKA
[b] LFMKGTPEFPKSGFS
I need your help: which of the pair a , b has higher SPOT intensity? Selection: enter the item's label.
b

Cited source for all entries: paper PMC2756588
